# credit: patent US20230012273A1

# TARGET: T1, full-length human SIRPαV2 D→E on Expi-CHO cells (human, UniProt P78324 31-504)
# T1 construct: the entry already carries the change (SPDT to SPET)
# T1 sequence (P78324 other isoform, or with tags, fused parts or gaps): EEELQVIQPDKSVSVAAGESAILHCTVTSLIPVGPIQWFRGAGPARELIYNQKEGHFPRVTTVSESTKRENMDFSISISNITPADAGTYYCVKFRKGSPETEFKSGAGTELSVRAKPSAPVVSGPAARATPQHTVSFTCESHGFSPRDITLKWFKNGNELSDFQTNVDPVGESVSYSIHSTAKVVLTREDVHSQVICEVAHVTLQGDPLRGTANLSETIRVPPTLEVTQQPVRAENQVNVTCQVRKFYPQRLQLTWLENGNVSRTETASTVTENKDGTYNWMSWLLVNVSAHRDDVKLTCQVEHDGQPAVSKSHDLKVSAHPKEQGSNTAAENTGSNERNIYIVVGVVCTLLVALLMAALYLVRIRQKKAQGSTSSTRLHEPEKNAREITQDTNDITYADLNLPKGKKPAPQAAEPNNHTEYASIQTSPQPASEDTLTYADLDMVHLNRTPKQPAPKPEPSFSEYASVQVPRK
# PROTOCOL: flow cytometry, Expi-CHO cells
RECORDED ENDPOINT: pEC50
A value of pEC50 is the negative decimal logarithm of a concentration given in moles per litre.

## Task Param item = Anti-SIRPα antibody KWAR23 (antibody, V domains shown) VH: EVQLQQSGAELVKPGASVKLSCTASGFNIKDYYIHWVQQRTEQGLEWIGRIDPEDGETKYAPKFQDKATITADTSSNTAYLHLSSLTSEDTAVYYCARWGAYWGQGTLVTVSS VL: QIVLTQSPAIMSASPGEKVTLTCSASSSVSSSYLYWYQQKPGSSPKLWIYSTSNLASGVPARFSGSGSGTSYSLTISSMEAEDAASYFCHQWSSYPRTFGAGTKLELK ; retrieve measured pEC50.
## Result 9.70

## Task Now this one: Antibody D (antibody, human IgG1, kappa, L234A L235A, V domains shown) VH: EVQLVESGGGLVQPGGSLRLSCAASGFTFSSFDMHWVRQPTGKGLEWVSTIGIAGDTYFPGSVKGRFTISRENAKNSLYLQMNSLRAGDTAVYYCARGGNWDDALDIWGQGTMVTVSS VL: DIQMTQSPSSLSASVGDRVTITCRASQDINNYLAWFQQKPGKAPKSLIYTASSLQSGVPSKFSGSGSGTDFTLTISSLQPEDFATYYCQQYNTYPYTFGQGTKLEIKR
## Result 9.22

## Task Now this one: Antibody C (antibody, human IgG1, kappa, L234A L235A, V domains shown) VH: EVQLVESGGGLVQPGGSLRLSCAASGFTFSSYDMHWVRQATGKGLEWVSVIGIAGDTYYPGSVKGRFTISRENAKNSLYLQMNSLRVGDTAVYYCARGGSWDDAFDIWGQGTMVTVSS VL: DIQMTQSPSSLSASIGDKVTITCRASQDINNYLAWFQQKPGKAPKSLIYTASSLQSGVPSKFSGSGSGTDFTLTISSLQPEDFATYYCQQYVSYPYTFGQGTKLEIKR
## Result 9.70

Moving on to another binder below.
## Task Param item = Antibody B (antibody, human IgG1, kappa, L234A L235A, V domains shown) VH: QVQLVQSGAEVKKPGASVKVSCKASGYTFTGNYMHWVRQAPGQGLEWMGWINPNSGGTNYAQKFQGRVTMTRDTSISTAYMELSRLRSDDTAVYYCVSGSGWYENYYYYGMDVWGQGTTVTVSS VL: DIQMTQSPSSVSASVGDRVTITCRASQGISSWLAWYQQKPGKAPKLLIYAESSLQSGVPSRFSGSGSGTDFTLTISSLQPEDFATYYCQQANSFPLTFGGGTKVEIKR ; retrieve measured pEC50.
## Result 8.43
